# Tested on: EKVX NSCLC
# Assay Overview: NCI tumour cell line growth inhibition, 48 h
Overview of recorded TGI for various compounds
Measurement Name: TGI

[[record]]
compound = "CC1=C(C(=O)Nc2ccccc2C)C(c2ccc(Cl)cc2)C(C(=O)Nc2ccccc2C)=C(C)N1"
measurement_name = "TGI"
reported_result = "> 100 µM"

[[record]]
compound = "N#CC(C#N)=C/C=C(\\Cl)c1ccc(Cl)cc1"
measurement_name = "TGI"
reported_result = "55.4 µM"

[[record]]
compound = "O=C1Nc2ccccc2C1(O)C/C(=N/O)c1ccc2ccccc2c1 (stereo not given)"
measurement_name = "TGI"
reported_result = "> 100 µM"

[[record]]
compound = "Nc1ncn([C@@H]2S[C@H](CO)[C@@H](O)[C@@H]2F)c(=O)n1"
measurement_name = "TGI"
reported_result = "> 100 µM"

[[record]]
compound = "CN1CCC(CNc2cc(C3(C(=O)Nc4cc(C(=O)Nc5ccc(Cl)c(C(F)(F)F)c5)ccc4F)CC3)ncn2)CC1"
measurement_name = "TGI"
reported_result = "6.62 µM"

